# System: mutant MDM2 reporter cells, luciferase luminescence enhancement, 2 h
# assay.protocol: compounds raising luminescence in mutant MDM2 cells – cell-based, luciferase luminescence, dose response (AID 1442)
The source made the active and inactive calls.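 Rule for the calls: active = maximum enhancement above 22% with a fitted EC50 greater than zero; inactive = the rest.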
Output constraint: value belongs to yes for active, no for inactive

Short answer needed: outcome of this test for CC(C)CC(=O)/C=C/n1c(=S)oc2ccccc21 ? yes

Next: COc1ccc(NC(=O)/C(Cl)=C(/Cl)S(=O)Cc2ccc(C)cc2)cn1 (stereo not drawn) yes

// next record CN(C(=O)c1cccc(COc2ccc(Cl)cc2Cl)c1)c1ccccc1 no

Input Cc1cc(C)nc(S/C=C/C(=O)c2ccccc2)n1 yes

Please do the same for CCN(CC)c1ccc(/C=C2\C(=O)c3ccc(C(=O)O)cc3C2=O)cc1 as well. no
